Attribute: MIC
Test system: Escherichia coli
Experiment: Antibacterial activity against Escherichia coli MTCC 443 after 24 to 48 hr by broth microdilution method
Type: functional
Write it as a number; the unit µg/mL goes unstated.

COMPOUND: CC1(C)CC(=O)C2=C(C1)OC(N)=C(C#N)C2c1c(-c2ccc(S(C)(=O)=O)cc2)[nH]c2ccccc12 (stereo not drawn)
RECORDED NUMBER: 100
--
COMPOUND: N#CC1=C(N)OC2=C(C(=O)CCC2)C1c1c(-c2ccc(Cl)cc2)[nH]c2ccccc12 (stereo not drawn)
RECORDED NUMBER: 100

The measured MIC associated with CC1(C)CC(=O)C2=C(C1)OC(N)=C(C#N)C2c1c(-c2ccc(Br)cc2)[nH]c2ccccc12 (stereo not drawn) reads 200

The measured MIC associated with COc1ccc(-c2[nH]c3ccccc3c2C2C(C#N)=C(N)OC3=C2C(=O)CCC3)cc1 (stereo not drawn) reads 100

The measured MIC associated with `CC1(C)S[C@@H]2[C@H](NC(=O)[C@H](N)c3ccccc3)C(=O)N2[C@H]1C(=O)O` reads 100

The measured MIC associated with CC1(C)CC(=O)C2=C(C1)OC(N)=C(C#N)C2c1c(-c2ccc(Cl)cc2)[nH]c2ccccc12 (stereo not drawn) reads 62.5

The measured MIC associated with Cc1ccc(-c2[nH]c3ccccc3c2C2C(C#N)=C(N)OC3=C2C(=O)CC(C)(C)C3)cc1 (stereo not drawn) reads 500

The measured MIC associated with CS(=O)(=O)c1ccc(-c2[nH]c3ccccc3c2C2C(C#N)=C(N)OC3=C2C(=O)CCC3)cc1 (stereo not drawn) reads 100
